Assignment: determine reported AC50 for the given compounds.
Study Target: Cytochrome P450 2C19 (Homo sapiens) (UniProt P33261)
Sequence (P33261 whole entry, looked up): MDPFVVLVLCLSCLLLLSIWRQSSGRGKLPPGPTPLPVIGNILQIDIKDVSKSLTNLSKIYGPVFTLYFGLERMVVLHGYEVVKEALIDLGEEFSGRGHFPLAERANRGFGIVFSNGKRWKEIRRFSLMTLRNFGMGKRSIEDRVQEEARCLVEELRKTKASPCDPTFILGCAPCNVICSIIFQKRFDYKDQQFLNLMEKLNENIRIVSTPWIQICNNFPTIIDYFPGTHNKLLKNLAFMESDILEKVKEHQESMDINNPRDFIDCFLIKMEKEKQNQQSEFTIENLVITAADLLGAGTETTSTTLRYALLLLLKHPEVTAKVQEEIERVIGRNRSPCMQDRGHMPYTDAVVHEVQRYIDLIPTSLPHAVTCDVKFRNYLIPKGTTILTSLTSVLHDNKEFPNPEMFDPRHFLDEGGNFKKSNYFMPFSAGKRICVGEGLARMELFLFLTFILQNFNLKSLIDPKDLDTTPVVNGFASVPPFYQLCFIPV
Assay Details: Cytochrome panel assay with activity outcomes
Setup Conditions: recombinant CYP, pro-luciferin dealkylation, luminescence, p450-cyp2c19; series mostly up to 57.1 µM
Screen size: about 16,000 compounds; about 5,800 (36%) were called active. Another 23% or so got no clear call; they are omitted. The list shows a part of the results.

Smi: COCCCNC(=O)CN(c1ccc(OC)cc1)S(=O)(=O)c1ccc(NC(C)=O)cc1
Study Target: Cytochrome P450 2C19 (Homo sapiens) (UniProt P33261)
AC50: 15.8 µM (active)

Smi: Cc1cccc(NC(=O)CSc2nnc(-c3ccco3)c(-c3ccco3)n2)c1C
Study Target: Cytochrome P450 2C19 (Homo sapiens) (UniProt P33261)
AC50: 2.24 µM (active)

Could you tell me AC50 for each of these compounds? They are listed below.
1. O=S(=O)(NCc1cc(-c2ccccc2Cl)no1)c1ccc(Cl)cc1
2. COc1cc(NC(=S)Nc2ccc(S(=O)(=O)N3CCOCC3)cc2)cc(OC)c1OC
3. O=C(CN(c1ccccc1)S(=O)(=O)c1ccccc1[N+](=O)[O-])NN=C1CCCCCCC1

Completion:
["0.0562 µM (active)", "10 µM (active)", "0.794 µM (active)"]
